- Tested on: HUVEC/MSC spheroids viability
- protocol-text: Human HUVEC/MSC cell line growth inhibition [KRAS2];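 note: percent of DMSO vehicle control luminescence so 100% = untreated viability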
- run-conditions: second compound 3.16 µM; first compound 0.316 µM; hits give low values
readout: viability, T/C

Solved cases (2 shown):
CCN1CCN(Cc2ccc(Nc3ncc(F)c(-c4cc(F)c5nc(C)n(C(C)C)c5c4)n3)nc2)CC1 + COc1cc2nc(C)nc(NC(C)c3cc(N)cc(C(F)(F)F)c3)c2cc1OC1CCOC1: 77%
COC(=O)c1ccc2c(C(=Nc3ccc(N(C)C(=O)CN4CCN(C)CC4)cc3)c3ccccc3)c(O)[nH]c2c1 + C=CC(=O)N1CCN(c2nc(=O)n(-c3c(C)ccnc3C(C)C)c3nc(-c4c(O)cccc4F)c(F)cc23)C(C)C1: 126%

Turning now to a further record.
viability, T/C reported for this compound COC(=O)c1ccc2c(C(=Nc3ccc(N(C)C(=O)CN4CCN(C)CC4)cc3)c3ccccc3)c(O)[nH]c2c1 + COc1cc2nc(C)nc(NC(C)c3cc(N)cc(C(F)(F)F)c3)c2cc1OC1CCOC1 : 62.5%
